- Test system: SK-MEL-2 melanoma
- EXPERIMENT_DESCRIPTION: NCI-60 one-dose screen, 48 h (100 = growth as untreated, 0 = no growth, -100 = all killed)
- EXPERIMENTAL_SETUP: 10 µM unless noted
About 83,000 compounds went through this panel and 20% of them were active in at least one assay; those are over-represented in the sample as a whole. Active and inactive are the calls of the source. Rule for the calls: active = growth percent below 10; inactive = the rest.
ASSAY_ENDPOINT: growth

Example results:
> print(dat)
                                   molecule  assay.endpoint        test.value
1  Fc1cc2c(cc1Cl)N(c1ncnc3ccc(-c4cnc5[nH]ncc5c4)cc13)CC2          growth  91.4% (inactive)
2  Oc1ccc(CCn2c(O)c(/C=C3\CN=c4ccccc4=N3)sc2=S)cc1          growth  91.5% (inactive)
3  CN1CCN(c2ccc(NC(=O)c3nc4ccc5[nH]ncc5c4c4c3CCCC4)cc2C(F)(F)F)CC1          growth  88.2% (inactive)
4  COc1cc(NC(C)CCCNC(C)C)c2ncccc2c1OC (stereo not drawn)          growth  90.8% (inactive)
5  Cc1cccc(N2CCN(CC(O)COc3ccc(Cl)cc3)CC2)c1 (stereo not drawn)          growth  89.5% (inactive)

Provide growth, system SK-MEL-2 melanoma, entry N=C(N)c1ccc(-c2ccc(-c3ccc(Cl)cc3)s2)nc1
103% (inactive)

Provide growth, system SK-MEL-2 melanoma, entry CN1CCN(c2ccc(C(=O)Nc3cccc(C#Cc4cccc5[nH]nc(N)c45)c3)cc2C(F)(F)F)CC1
27.7% (inactive)

---

- System: NCI-H522 lung
- EXPERIMENT_DESCRIPTION: NCI-60 one-dose screen, 48 h (100 = growth as untreated, 0 = no growth, -100 = all killed)
- EXPERIMENTAL_SETUP: 10 µM unless noted
Compounds without any hit were thinned out: in the full panel of roughly 83,000, 20% have a hit.
Each entry below carries its recorded growth.
Give your result in % as a bare value.

Example results:
> print(dat)
                              line.notation  test.value
1  CCCCN[C@H]1CC[C@@]2(C)[C@@H](CC[C@@]3(C)[C@H]2[C@H](O)C[C@H]2/C(=C(\CCC=C(C)C)C(=O)OC)[C@@H](OC(C)=O)C[C@@]23C)[C@@H]1C          93
2  O=Nc1c(-c2c(O)[nH]c3ncccc23)[nH]c2ccccc12        47.6
3  COc1ccc(-c2csc(N(C(=O)N3CCN(c4cc5c(cc4F)c(=O)c(C(=O)O)cn5C4CC4)CC3)c3ccccc3)n2)cc1       -21.8
4  O=C(Cn1c(=O)sc2nc3ccccc3nc21)Nc1ncc(Cc2cccc(Cl)c2Cl)s1        82.5
5  O=S(=O)(NCCNc1nccc(-c2c(-c3cccc(F)c3)nc3occn23)n1)c1ccc(Br)cc1        81.8
6  CN1CCN(c2ccc(NC(=O)c3nc4ccc5[nH]ncc5c4c4c3CCCC4)cc2C(F)(F)F)CC1        76.7

Quick one: give measured growth for O=C(O)c1ccc(-n2cc(/C=N/Nc3ccc(F)cc3)c(-c3cc4ccccc4oc3=O)n2)cc1
50.9

Quick one: give measured growth for COc1cc(/C=C/C(=O)c2cccc(Nc3nc(Nc4ccccc4)nc(Nc4ccccc4)n3)c2)cc(OC)c1OC
87.8

Quick one: give measured growth for O=C(NNC(=O)c1ccc(-n2cc(-c3ccccc3)nn2)cc1)Nc1ccccc1
108

Quick one: give measured growth for O=C(Cn1cc(CN2C(=O)c3ccccc3S2(=O)=O)nn1)Nc1nc2ccccc2s1
84.2

Quick one: give measured growth for O=C(NNc1nccc(Nc2ccc(S(=O)(=O)Nc3ccncc3)cc2)n1)c1ccccc1
94.5
